system: L1210; assay: Inhibition of L1210/R81 murine leukemia cell growth; assay type: functional, cell-based; conditions: Mus musculus
pIC50: −log10 of the molar value.
property.label: pIC50

Some solved cases for reference:
CN(Cc1cnc2nc(N)nc(N)c2n1)c1ccc(C(=O)NC(CCCNC(=O)CBr)C(=O)O)cc1 (centres undefined) ... 6.81
CN(Cc1cnc2nc(N)nc(N)c2n1)c1ccc(C(=O)NC(CCCCNC(=O)CCl)C(=O)O)cc1 (centres undefined) ... 7.03

A. CN(Cc1cnc2nc(N)nc(N)c2n1)c1ccc(C(=O)NC(CCCNC(=O)CCl)C(=O)O)cc1 (centres undefined)
B. CN(Cc1cnc2nc(N)nc(N)c2n1)c1ccc(C(=O)NC(CCCCNC(=O)CBr)C(=O)O)cc1 (centres undefined)
IN: Sorting ascending by pIC50, which comes first: A or B ? Refer to your chosen entry by its label in the reply.
OUT: B
(B: 6.62, A: 6.98)

----------
Target protein (sequence): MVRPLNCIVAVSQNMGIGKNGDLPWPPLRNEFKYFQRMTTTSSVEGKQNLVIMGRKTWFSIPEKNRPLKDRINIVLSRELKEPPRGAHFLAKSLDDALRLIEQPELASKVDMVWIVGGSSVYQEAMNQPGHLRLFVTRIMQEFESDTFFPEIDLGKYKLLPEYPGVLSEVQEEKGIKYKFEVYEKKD
property.label: IC50 (µM)

A. CN(Cc1cnc2nc(N)nc(N)c2n1)c1ccc(C(=O)NC(CCCCNC(=O)CBr)C(=O)O)cc1 (configuration not stated)
B. CN(Cc1cnc2nc(N)nc(N)c2n1)c1ccc(C(=O)NC(CCCCNC(=O)CCl)C(=O)O)cc1 (configuration not stated)
IN: Between the entries labelled A and B , which has a larger IC50 value on record? Refer to your chosen entry by its label in the reply.
OUT: A

----------
test system: L1210; experiment: Inhibition of L1210 cultured murine leukemia cell growth; type: functional, cell-based; settings: Mus musculus
property.label: IC50 (nM)

CN(Cc1cnc2nc(N)nc(N)c2n1)c1ccc(C(=O)NC(CCCNC(=O)CBr)C(=O)O)cc1 (stereo not given) ... 126
CN(Cc1cnc2nc(N)nc(N)c2n1)c1ccc(C(=O)N[C@@H](CCC(=O)O)C(=O)O)cc1 [METHOTREXATE] ... 5

A. CN(Cc1cnc2nc(N)nc(N)c2n1)c1ccc(C(=O)NC(CCCCNC(=O)CCl)C(=O)O)cc1 (stereo not given)
B. CN(Cc1cnc2nc(N)nc(N)c2n1)c1ccc(C(=O)NC(CCCNC(=O)CCl)C(=O)O)cc1 (stereo not given)
C. CN(Cc1cnc2nc(N)nc(N)c2n1)c1ccc(C(=O)NC(CCCCNC(=O)CBr)C(=O)O)cc1 (stereo not given)
IN: In this exercise, place the 3 molecules in ascending sequence of their recorded IC50. Output spec: labels arranged per the requested ranking.
OUT: A, B, C

----------
experiment: Fold resistance calculated by dividing the IC50(L1210/R81) by the IC50(L1210)
property.label: Resistance

CN(Cc1cnc2nc(N)nc(N)c2n1)c1ccc(C(=O)N[C@@H](CCC(=O)O)C(=O)O)cc1 [METHOTREXATE] ... 44000
CN(Cc1cnc2nc(N)nc(N)c2n1)c1ccc(C(=O)NC(CCCCNC(=O)CBr)C(=O)O)cc1 (stereo not given) ... 2500
CN(Cc1cnc2nc(N)nc(N)c2n1)c1ccc(C(=O)NC(CCCNC(=O)CCl)C(=O)O)cc1 (stereo not given) ... 1700

A. CN(Cc1cnc2nc(N)nc(N)c2n1)c1ccc(C(=O)NC(CCCNC(=O)CBr)C(=O)O)cc1 (stereo not given)
B. CN(Cc1cnc2nc(N)nc(N)c2n1)c1ccc(C(=O)NC(CCCCNC(=O)CCl)C(=O)O)cc1 (stereo not given)
IN: Between the entries labelled A and B , which has a larger Resistance value on record? Refer to your chosen entry by its label in the reply.
OUT: B

Data provenance is ChEMBL document CHEMBL1123871.
